Hello, the source for this data is ChEMBL document CHEMBL1126647, in case you need it.

relative binding affinity (RBA) listing for selected compounds.
# target: Progesterone receptor (Rattus norvegicus) (UniProt Q63449)
# Sequence (whole entry): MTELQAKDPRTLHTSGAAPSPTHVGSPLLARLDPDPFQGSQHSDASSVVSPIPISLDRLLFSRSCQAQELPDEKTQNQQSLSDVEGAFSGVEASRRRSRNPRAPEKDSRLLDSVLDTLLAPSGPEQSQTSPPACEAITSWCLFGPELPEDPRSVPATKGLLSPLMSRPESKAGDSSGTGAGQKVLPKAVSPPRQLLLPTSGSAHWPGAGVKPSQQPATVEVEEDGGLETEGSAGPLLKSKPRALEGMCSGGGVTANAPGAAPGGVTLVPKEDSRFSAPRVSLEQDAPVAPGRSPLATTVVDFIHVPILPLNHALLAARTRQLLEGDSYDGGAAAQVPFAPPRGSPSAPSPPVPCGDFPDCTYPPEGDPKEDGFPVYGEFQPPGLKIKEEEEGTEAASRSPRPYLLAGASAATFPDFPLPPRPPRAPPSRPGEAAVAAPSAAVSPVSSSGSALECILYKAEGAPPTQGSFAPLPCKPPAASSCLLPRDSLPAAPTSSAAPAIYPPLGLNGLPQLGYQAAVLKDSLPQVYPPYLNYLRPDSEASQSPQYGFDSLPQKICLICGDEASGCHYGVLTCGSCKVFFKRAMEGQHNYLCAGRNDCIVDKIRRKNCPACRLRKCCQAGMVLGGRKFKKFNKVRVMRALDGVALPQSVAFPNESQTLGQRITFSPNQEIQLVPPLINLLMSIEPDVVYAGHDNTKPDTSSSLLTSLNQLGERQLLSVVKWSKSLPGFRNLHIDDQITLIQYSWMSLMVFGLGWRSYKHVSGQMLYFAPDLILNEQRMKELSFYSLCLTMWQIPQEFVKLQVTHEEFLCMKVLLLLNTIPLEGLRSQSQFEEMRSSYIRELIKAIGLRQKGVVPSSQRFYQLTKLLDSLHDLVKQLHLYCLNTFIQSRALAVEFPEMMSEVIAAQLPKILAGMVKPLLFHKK
# protocol_notes: Relative binding affinity for progesterone receptor compared to R5020
# output: bare number, no unit

- compound: "C[C@@]1(c2ccc(F)cc2)O[C@@H]2CC3C4CCC5=CC(=O)CC[C@@H]5C4CC[C@]3(C)[C@]2(C(=O)CO)O1 (some centres not stated)"
  reported_measurement: 240
- compound: "C[C@]1(c2ccc(F)cc2)O[C@@H]2CC3C4CCC5=CC(=O)CC[C@@H]5C4CC[C@]3(C)[C@]2(C(=O)CO)O1 (some centres not stated)"
  reported_measurement: 1.3
- compound: "CC[C@@H]1C[C@H]2[C@@H]3CCC4=CC(=O)CC[C@@H]4[C@H]3CC[C@]2(C)[C@H]1C(=O)CF"
  reported_measurement: 700
- compound: "CC[C@@H]1C[C@H]2[C@@H]3CCC4=CC(=O)CC[C@@H]4[C@H]3CC[C@]2(C)[C@H]1C(=O)CO"
  reported_measurement: 200
- compound: "CC(=O)[C@@]12O[C@](C)(c3ccc(F)cc3)O[C@@H]1CC1C3CCC4=CC(=O)CC[C@]4(C)C3CC[C@@]12C (some centres not stated)"
  reported_measurement: 53
- compound: "CC(=O)[C@H]1CC[C@H]2[C@@H]3CCC4=CC(=O)CC[C@]4(C)[C@H]3CC[C@]12C"
  reported_measurement: 13

Next up:
Item CCC(=O)[C@@]1(C)CC[C@H]2[C@@H]3CCC4=CC(=O)CCC4=C3CC[C@@]21C [PROMEGESTONE] has what recorded relative binding affinity (RBA)? 100

----------
logP listing for selected molecules.
# protocol_notes: Partition coefficient (logP)
# Type: physicochemical
# test_parameters: octanol/water
# output: bare number, no unit

- molecule: "CC[C@@H]1C[C@H]2[C@@H]3CCC4=CC(=O)CC[C@@H]4[C@H]3CC[C@]2(C)[C@H]1C(=O)CF"
  logP: 4.66
- molecule: "C[C@@]1(c2ccc(F)cc2)O[C@@H]2CC3C4CCC5=CC(=O)CC[C@@H]5C4CC[C@]3(C)[C@]2(C(=O)CO)O1 (stereo partly specified)"
  logP: 4.92
- molecule: "CCC(=O)[C@@]1(C)CC[C@H]2[C@@H]3CCC4=CC(=O)CCC4=C3CC[C@@]21C"
  logP: 4.05
- molecule: "CC[C@@H]1C[C@H]2[C@@H]3CCC4=CC(=O)CC[C@@H]4[C@H]3CC[C@]2(C)[C@H]1C(=O)CO"
  logP: 4.01
- molecule: "CC(=O)[C@@]12O[C@](C)(c3ccc(F)cc3)O[C@@H]1CC1C3CCC4=CC(=O)CC[C@]4(C)C3CC[C@@]12C (stereo partly specified)"
  logP: 5.71

Next up:
Item C[C@]1(c2ccc(F)cc2)O[C@@H]2CC3C4CCC5=CC(=O)CC[C@@H]5C4CC[C@]3(C)[C@]2(C(=O)CO)O1 (stereo partly specified) has what recorded logP? 4.84

----------
# target: Mineralocorticoid receptor (Rattus norvegicus) (UniProt P22199)
# Sequence (P22199 whole entry): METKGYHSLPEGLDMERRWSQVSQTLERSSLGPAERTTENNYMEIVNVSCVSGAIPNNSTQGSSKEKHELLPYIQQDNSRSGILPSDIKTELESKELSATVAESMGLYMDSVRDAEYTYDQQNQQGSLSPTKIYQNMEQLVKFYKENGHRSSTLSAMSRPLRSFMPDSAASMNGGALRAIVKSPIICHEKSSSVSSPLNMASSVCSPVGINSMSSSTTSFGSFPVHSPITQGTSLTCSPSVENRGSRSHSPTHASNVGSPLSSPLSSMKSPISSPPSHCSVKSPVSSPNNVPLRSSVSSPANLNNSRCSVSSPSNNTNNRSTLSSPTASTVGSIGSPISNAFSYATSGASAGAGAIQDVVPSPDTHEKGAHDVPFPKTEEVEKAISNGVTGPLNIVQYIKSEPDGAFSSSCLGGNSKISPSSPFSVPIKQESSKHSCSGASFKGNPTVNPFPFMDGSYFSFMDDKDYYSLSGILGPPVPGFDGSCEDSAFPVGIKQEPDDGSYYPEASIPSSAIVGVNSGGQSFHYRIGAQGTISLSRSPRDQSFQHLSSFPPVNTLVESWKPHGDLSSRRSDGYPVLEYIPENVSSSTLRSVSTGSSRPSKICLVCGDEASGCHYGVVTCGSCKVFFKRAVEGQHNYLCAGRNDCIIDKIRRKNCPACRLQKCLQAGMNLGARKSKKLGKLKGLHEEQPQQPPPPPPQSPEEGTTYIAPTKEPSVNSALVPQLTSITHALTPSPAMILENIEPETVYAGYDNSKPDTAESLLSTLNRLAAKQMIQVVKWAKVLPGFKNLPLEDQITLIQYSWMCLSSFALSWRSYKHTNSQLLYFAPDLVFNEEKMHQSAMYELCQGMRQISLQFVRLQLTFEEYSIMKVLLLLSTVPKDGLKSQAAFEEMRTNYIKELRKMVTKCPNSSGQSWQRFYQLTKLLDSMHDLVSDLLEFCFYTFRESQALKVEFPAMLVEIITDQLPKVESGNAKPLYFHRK
# protocol_notes: Relative binding affinity (RBA) for mineralocorticoid receptor compared to aldosterone
relative binding affinity (RBA) listing for selected compounds.
# output: bare number, no unit

Take a look at these entries with their results.
- compound: "C[C@@]1(c2ccc(F)cc2)O[C@@H]2CC3C4CCC5=CC(=O)CC[C@@H]5C4CC[C@]3(C)[C@]2(C(=O)CO)O1 (stereo not given in full)"
  assay_endpoint: "relative binding affinity (RBA)"
  reported_measurement: 140
- compound: "CC[C@@H]1C[C@H]2[C@@H]3CCC4=CC(=O)CC[C@@H]4[C@H]3CC[C@]2(C)[C@H]1C(=O)CO"
  assay_endpoint: "relative binding affinity (RBA)"
  reported_measurement: 0.92
- compound: "CCC(=O)[C@@]1(C)CC[C@H]2[C@@H]3CCC4=CC(=O)CCC4=C3CC[C@@]21C"
  assay_endpoint: "relative binding affinity (RBA)"
  reported_measurement: 0.93
- compound: "CC(=O)[C@@]12O[C@](C)(c3ccc(F)cc3)O[C@@H]1CC1C3CCC4=CC(=O)CC[C@]4(C)C3CC[C@@]12C (stereo not given in full)"
  assay_endpoint: "relative binding affinity (RBA)"
  reported_measurement: 6

Item "CC[C@@H]1C[C@H]2[C@@H]3CCC4=CC(=O)CC[C@@H]4[C@H]3CC[C@]2(C)[C@H]1C(=O)CF" has what recorded relative binding affinity (RBA)? 3.2
